- Study system: pseudo-kinase domain (JH2, amino-acids 536-812 with 3 surface mutations W659A, W777A, F794H) of human V617F mutant JAK2 (Homo sapiens, UniProt O60674, F794H/V617F/W659A/W777A)
- Construct: pseudo-kinase domain (JH2, amino-acids 536-812 with 3 surface mutations W659A, W777A, F794H); His (C); Avi (biotinylated) (C)
- Sequence (O60674 536-812 V617F/W659A/W777A/F794H): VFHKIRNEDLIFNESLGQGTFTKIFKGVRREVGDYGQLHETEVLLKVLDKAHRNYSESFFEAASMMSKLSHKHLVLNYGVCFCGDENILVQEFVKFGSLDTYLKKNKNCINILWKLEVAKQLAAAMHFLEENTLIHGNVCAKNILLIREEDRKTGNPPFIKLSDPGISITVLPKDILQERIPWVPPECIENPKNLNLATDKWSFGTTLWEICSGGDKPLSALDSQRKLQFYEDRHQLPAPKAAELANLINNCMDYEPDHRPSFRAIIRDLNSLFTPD
- Test protocol: JAK2 LanthaScreen JH2-V617F Binding Assay
- Conditions used: JAK2 JH2-V617F (0.26 nM), 50 nM Fluorescent JAK2-JH2 Tracer, 1 hour at 25° C.; read-out: JH2 BIND V617F
pIC50: −log10 of the molar value.

Compound	pIC50
Cn1c(=O)n(C2CCCCC2)c2c3cc(-c4ccc(CN5CCC(S(C)(=O)=O)CC5)cc4)[nH]c3ncc21 [Example 10]	6.30 to 7.00
Cn1ncc2cc(-c3c(C(=O)NC4CC4)[nH]c4ncc5c(c34)n(C3CCCC3)c(=O)n5C)ccc21 [Example 98]	7.00 to 8.00
Cn1c(=O)n(C2CCCC2)c2c3c(-c4ccc(C5(C#N)CC5)cc4)c(-c4cnn(CS(C)(=O)=O)c4)[nH]c3ncc21 [Example 31]	≥ 8.00
Cc1cn2cc(-c3c(-c4cnn(CC(C)(C)O)c4)[nH]c4ncc5c(c34)n(C(C)C)c(=O)n5C)cc2cn1 [Example 84]	≥ 8.00
CCN1CCN(c2ccc(-c3cc4c(ncc5c4n(-c4ccccn4)c(=O)n5C)[nH]3)cc2)CC1 [Example 9]	< 6.00
CC(C)n1c(=O)n(C)c2cnc3[nH]c(C4CC4)c(-c4ccc(C#N)cc4)c3c21 [Example 39]	7.00 to 8.00
Cn1cc(-c2[nH]c3ncc4c(c3c2-c2ccc(C#N)cc2)n(C2CCC3(CC2)CN(S(C)(=O)=O)C3)c(=O)n4C)cn1 [Example 112]	≥ 8.00

###

- Study system: pseudo-kinase domain (JH2, amino-acids 536-812 with 3 surface mutations W659A, W777A, F794H) of human Wild Type JAK2 (Homo sapiens, UniProt O60674, F794H/W659A/W777A)
- Construct: pseudo-kinase domain (JH2, amino-acids 536-812 with 3 surface mutations W659A, W777A, F794H); His (C); Avi (biotinylated) (C)
- Sequence (O60674 536-812 W659A/W777A/F794H): as the sequence (O60674 536-812 V617F/W659A/W777A/F794H) above, with F82V counted along it
- Test protocol: JAK2 LanthaScreen JH2-WT Binding Assay
- Conditions used: JAK2 JH2-WT (0.145 nM), 50 nM Fluorescent JAK2-JH2 Tracer, 1 hour at 25° C.; read-out: JH2 BIND WT

Chemical structure	IC50
CN(CCCS(C)(=O)=O)Cc1ccc(-c2cc3c(ncc4c3n(-c3ccccc3)c(=O)n4C)[nH]2)cc1	100 to 500 nM
COCCn1cc(-c2[nH]c3ncc4c(c3c2-c2ccc3c(cnn3C)c2)n(C2CCCC2)c(=O)n4C)cn1	≤ 10 nM
Cn1c(=O)n(C2CCCC2)c2c3c(-c4ccc(C5(C#N)CC5)cc4)c(-c4cnn(CS(C)(=O)=O)c4)[nH]c3ncc21	≤ 10 nM
CC(C)C(=O)c1[nH]c2ncc3c(c2c1-c1ccccc1)n(C)c(=O)n3C	> 1000 nM
COc1ccc(-c2c(-c3ccc(CN4CCC(S(C)(=O)=O)CC4)cc3)[nH]c3ncc4c(c23)n(C)c(=O)n4C)cn1	100 to 500 nM
Cn1cc(-c2[nH]c3ncc4c(c3c2-c2ccc3c(cnn3C)c2)n(C2CCOCC2)c(=O)n4C)cn1	≤ 10 nM
COc1nn(C)cc1-c1[nH]c2ncc3c(c2c1-c1ccc2c(cnn2C)c1)n([C@H]1CC[C@@H](CC#N)CC1)c(=O)n3C	≤ 10 nM

###

- Study system: pseudo-kinase domain (JH2, amino-acids 536-812 with 3 surface mutations W659A, W777A, F794H) of human Wild Type JAK2 (Homo sapiens, UniProt O60674, F794H/W659A/W777A)
- Construct: pseudo-kinase domain (JH2, amino-acids 536-812 with 3 surface mutations W659A, W777A, F794H); His (C); Avi (biotinylated) (C)
- Test protocol: JAK2 LanthaScreen JH2-WT Binding Assay
- Conditions used: JAK2 JH2-WT (0.145 nM), 50 nM Fluorescent JAK2-JH2 Tracer, 1 hour at 25° C.; read-out: JH2 BIND WT

Chemical structure	IC50
CC(=O)N1CCN(c2cc3sc(-c4c(-c5cnn(CC(C)(C)O)c5)[nH]c5ncc6c(c45)n(C(C)C)c(=O)n6C)cc3cn2)CC1	≤ 10 nM
COc1ccc(-c2c(-c3ccc(CN4CCC(S(C)(=O)=O)CC4)cc3)[nH]c3ncc4c(c23)n(C2CCC2)c(=O)n4C)cc1	≤ 10 nM
Cn1c(=O)n(C2CCCC2)c2c3c(-c4cc5cnccc5s4)c(-c4cnn(CC(F)F)c4)[nH]c3ncc21	≤ 10 nM

###

- Study system: catalytic domain (JH1, amino acids 826-1132) of human JAK2 (Homo sapiens)
- Construct: catalytic domain (JH1, amino acids 826-1132) of human JAK2; FLAG (N)
- Sequence (O60674 826-1132): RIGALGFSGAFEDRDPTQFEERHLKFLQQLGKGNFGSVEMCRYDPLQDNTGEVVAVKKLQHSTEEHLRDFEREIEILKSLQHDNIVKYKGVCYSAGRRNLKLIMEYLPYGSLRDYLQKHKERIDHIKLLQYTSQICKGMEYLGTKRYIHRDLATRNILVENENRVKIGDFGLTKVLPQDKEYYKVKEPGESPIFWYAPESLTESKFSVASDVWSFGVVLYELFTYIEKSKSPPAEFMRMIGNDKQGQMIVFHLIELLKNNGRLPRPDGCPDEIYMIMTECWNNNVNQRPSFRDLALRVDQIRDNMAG
- Test protocol: JAK2 LanthaScreen JH1 Binding Assay
- Conditions used: JAK2 JH1 (1.5 nM), 50 nM fluorescent JAK2-JH1 tracer, 2 hours at 25° C.; read-out: JH1 BIND
Metric: IC50

Molecule	Study system	Obs value
Cn1c(=O)n(C2CCCC2)c2c3c(C4=CCOCC4)c(-c4ccc(CN5CCC(S(C)(=O)=O)CC5)cc4)[nH]c3ncc21 [Example 33]	catalytic domain (JH1, amino acids 826-1132) of human JAK2 (Homo sapiens)	10 to 100 nM
CC(C)n1c(=O)n(C)c2cnc3[nH]c(-c4cnn(CC(C)(C)O)c4)c(-c4ccc5cnccc5c4)c3c21 [Example 77]	catalytic domain (JH1, amino acids 826-1132) of human JAK2 (Homo sapiens)	> 1000 nM
Cn1ncc2cc(-c3c(-c4cnn(CC(C)(C)O)c4)[nH]c4ncc5c(c34)n(C3CCCC3)c(=O)n5C)ccc21 [Example 47]	catalytic domain (JH1, amino acids 826-1132) of human JAK2 (Homo sapiens)	100 to 500 nM
Cn1c(=O)n(C2CCCC2)c2c3c(-c4cc5cnccc5s4)c(-c4cnn(CC(F)F)c4)[nH]c3ncc21 [Example 57]	catalytic domain (JH1, amino acids 826-1132) of human JAK2 (Homo sapiens)	100 to 500 nM
CC(C)n1c(=O)n(C)c2cnc3[nH]c(-c4cnn(C)c4)c(C#Cc4ccccc4)c3c21 [Example 100]	catalytic domain (JH1, amino acids 826-1132) of human JAK2 (Homo sapiens)	500 to 1000 nM
CC(C)n1c(=O)n(C)c2cnc3[nH]c(-c4cnn(Cc5ccncc5)c4)c(-c4ccc(C#N)cc4)c3c21 [Example 36]	catalytic domain (JH1, amino acids 826-1132) of human JAK2 (Homo sapiens)	100 to 500 nM
CC(C)n1c(=O)n(C)c2cnc3[nH]c(-c4cnn(CC(C)(C)O)c4)c(-c4ccc5ncsc5c4)c3c21 [Example 78]	catalytic domain (JH1, amino acids 826-1132) of human JAK2 (Homo sapiens)	> 1000 nM
COc1ccc(-c2c(-c3ccc(CN4CCC(S(C)(=O)=O)CC4)cc3)[nH]c3ncc4c(c23)n(C2CCCCC2)c(=O)n4C)cc1 [Example 19]	catalytic domain (JH1, amino acids 826-1132) of human JAK2 (Homo sapiens)	10 to 100 nM
Cn1ncc2cc(-c3c(CCO)[nH]c4ncc5c(c34)n(C3CCCC3)c(=O)n5C)ccc21 [Example 70]	catalytic domain (JH1, amino acids 826-1132) of human JAK2 (Homo sapiens)	> 1000 nM
Cn1ncc2cc(-c3c(C4=CCCCC4)[nH]c4ncc5c(c34)n(C3CCCC3)c(=O)n5C)ccc21 [Example 69]	catalytic domain (JH1, amino acids 826-1132) of human JAK2 (Homo sapiens)	> 1000 nM
Cn1cc(-c2[nH]c3ncc4c(c3c2-c2ccc3c(cnn3C)c2)n(C2CCN(C3(CC#N)CCC3)CC2)c(=O)n4C)cn1 [Example 111]	catalytic domain (JH1, amino acids 826-1132) of human JAK2 (Homo sapiens)	500 to 1000 nM
Cn1ncc2cc(-c3c(-c4cnn(Cc5ccncc5)c4)[nH]c4ncc5c(c34)n(C3CCCC3)c(=O)n5C)ccc21 [Example 53]	catalytic domain (JH1, amino acids 826-1132) of human JAK2 (Homo sapiens)	100 to 500 nM
CCN1CCN(c2ccc(-c3cc4c(ncc5c4n(CC(=O)N4CCCCC4)c(=O)n5C)[nH]3)cc2)CC1 [Example 17]	catalytic domain (JH1, amino acids 826-1132) of human JAK2 (Homo sapiens)	> 1000 nM
CC(C)n1c(=O)n(C)c2cnc3[nH]c(-c4cnn(CC(C)(C)O)c4)c(-c4cnc(N5CCOCC5)s4)c3c21 [Example 76]	catalytic domain (JH1, amino acids 826-1132) of human JAK2 (Homo sapiens)	> 1000 nM

###

- Study system: pseudo-kinase domain (JH2, amino-acids 536-812 with 3 surface mutations W659A, W777A, F794H) of human Wild Type JAK2 (Homo sapiens, UniProt O60674, F794H/W659A/W777A)
- Construct: pseudo-kinase domain (JH2, amino-acids 536-812 with 3 surface mutations W659A, W777A, F794H); His (C); Avi (biotinylated) (C)
- Test protocol: JAK2 LanthaScreen JH2-WT Binding Assay
- Conditions used: JAK2 JH2-WT (0.145 nM), 50 nM Fluorescent JAK2-JH2 Tracer, 1 hour at 25° C.; read-out: JH2 BIND WT
Parameter: IC50. Scope: all listed entries.

Compound	IC50
[2H]C([2H])([2H])n1ncc2cc(-c3c(-c4cnn5cccnc45)[nH]c4ncc5c(c34)n(C3CCOCC3)c(=O)n5C)ccc21	≤ 10 nM
Cn1ncc2cc(-c3c(-c4cnn(CC(F)F)c4)[nH]c4ncc5c(c34)n(C3CCCC3)c(=O)n5C)ccc21	≤ 10 nM
CC(C)Oc1ccc(-c2[nH]c3ncc4c(c3c2-c2ccc3c(cnn3C)c2)n(C2CCCC2)c(=O)n4C)cn1	10 to 100 nM
CCn1c(=O)n(C2CCCC2)c2c3cc(-c4ccc(CN5CCC(S(C)(=O)=O)CC5)cc4)[nH]c3ncc21	> 1000 nM
Cn1c(=O)n(C2CCCC2)c2c3c(-c4ccccc4)c(-c4ccc(CN5CCC(S(C)(=O)=O)CC5)cc4)[nH]c3ncc21	≤ 10 nM
CC(C)n1c(=O)n(C)c2cnc3[nH]c(-c4cnn(Cc5ccncc5)c4)c(-c4ccc(C#N)cc4)c3c21	≤ 10 nM
Cn1c(=O)n(C2CC3CCC2C3)c2c3c(-c4ccccc4)c(-c4cnn(CS(C)(=O)=O)c4)[nH]c3ncc21 (stereo not shown)	≤ 10 nM
